Parameter: growth inhibition. Scope: all listed entries.
Assay: NCI Yeast Anticancer Drug Screen. Data for the sgs1 mgt1 strain (AID 161);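 also: 0% = growth of cultures given vehicle only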
Conditions: S. cerevisiae sgs1 mgt1 strain, at 50.0 µM, stronger effect = higher value
About 79,000 compounds went through this panel and 15% of them were active in at least one assay; those are over-represented in the sample as a whole.
Note: unit % is implicit; provide only the numeric part.

>>> readout_number("Cc1cc(Cl)ccc1N1C(=O)C(=O)C(c2nc3ccccc3s2)C(=O)C1=O")
17.9
>>> readout_number("O=[N+]([O-])c1cc(/C=N\\NS(=O)(=O)c2ccc(Cl)cc2)c(O)c([N+](=O)[O-])c1")
3.9
>>> readout_number("CN(CN(C)/N=C/c1ccc(Cl)cc1)/N=C/c1ccc(Cl)cc1")
7.95

Proceeding to the next molecule to report its growth inhibition.
## Task Fill in: growth inhibition of COc1ncn(C2CC(OC(=O)c3ccc(C)cc3)C(COC(=O)c3ccc(C)cc3)O2)c(=O)n1 (centres undefined) is ___
## Result -14.7

---

Assay: NCI Yeast Anticancer Drug Screen. Data for the bub3 strain (AID 167)
Conditions: S. cerevisiae bub3 mutant strain, at 50.0 µM, stronger effect = higher value
About 79,000 compounds went through this panel and 15% of them were active in at least one assay; those are over-represented in the sample as a whole. Where a SMILES comes first, the peptide text is derived from it. [ ]: non-standard residue; d: D form. Ac5c = NC1(C(=O)O)CCCC1
Parameter: growth inhibition. Scope: all listed entries.
Note: unit % is implicit; provide only the numeric part.

// worked examples, growth inhibition included
>>> readout_number("N#Cc1c(/C=C/c2ccccc2)c2c([nH]c1=S)CCCCC2")
16.9
>>> readout_number("CN1CCC(CC(O)(c2ccccc2)C2CCCCC2)C1 (centres undefined)")
4.2
>>> readout_number("O=C(CCC(=O)C1Cc2ccccc2C1=O)Nc1cccc(C(F)(F)F)c1 (centres undefined)")
-22.9

## Task Fill in: growth inhibition of `CC[C@H](O)[C@H](C)C=C1SCCCS1` is ___
## Result -43.8

## Task Fill in: growth inhibition of COC(=O)C(C(=O)C(=O)Nc1ccc(C(F)(F)F)cc1[N+](=O)[O-])c1csc(-n2nc(-c3ccccc3)cc2-c2ccccc2)n1 (centres undefined) is ___
## Result 23.4

## Task Fill in: growth inhibition of `CC(=O)Nc1ccc(F)c(F)c1` is ___
## Result -3.35

## Task Fill in: growth inhibition of NC1(C(=O)NC2(C(=O)O)CCCC2)CCCC1 (H-[Ac5c]-[Ac5c]-OH) is ___
## Result -42.9

---

Assay: NCI Yeast Anticancer Drug Screen. Data for the mec2-1 strain (AID 157)
Details: S. cerevisiae mec2-1 strain, at 50.0 µM, stronger effect = higher value
The panel holds about 79,000 compounds, 15% with a hit somewhere; the sample as a whole holds those more often. Where a SMILES comes first, the peptide text is derived from it. The star is where a group is joined. For = O=C*
measured quantity: growth inhibition (%)
Note: unit % is implicit; provide only the numeric part.

// worked examples, growth inhibition included
>>> readout_number("CCCCCC(O)(CCCC)CCCCC")
-1.65
>>> readout_number("OC(C1CCCCC1)(C1CCC2(CCCCC2)CC1)C1CCCC2CCCCC21 (centres undefined)")
5
>>> readout_number("O=C(O)/C(=C\\c1ccccc1[N+](=O)[O-])c1ccccc1")
-3.05

## Task Fill in: growth inhibition of `Clc1ccc(-c2nnc(-c3cccc4ccccc34)o2)cc1Cl` is ___
## Result -32.3

## Task Fill in: growth inhibition of `CC1=[N+]([O-])C2(CCCC2)N(O)C1(C)C` is ___
## Result -0.7

## Task Fill in: growth inhibition of `COc1ccccc1CNCc1nc2ccccc2[nH]1` is ___
## Result 2.6

## Task Fill in: growth inhibition of `O=c1[nH]c(=S)[nH]c2c1CN(CCCN1CCOCC1)CN2` is ___
## Result -8.7

## Task Fill in: growth inhibition of `C=C1C(=O)O[C@H]2[C@H]1CC(=O)/C(C)=C\CC[C@@]1(C)O[C@@H]21` is ___
## Result 59.4

## Task Fill in: growth inhibition of CSCCC(NC(=O)C(Cc1ccccc1)NC=O)C(=O)O (stereo not drawn) (For-Phe-Met-OH; configuration not given here) is ___
## Result -26.9

## Task Fill in: growth inhibition of COC(=O)CCCCCCCCCCCCC1C=CCC1 (centres undefined) is ___
## Result -31.1

## Task Fill in: growth inhibition of `O=C1C=C2SCCN2C(=O)C1` is ___
## Result -33.8

## Task Fill in: growth inhibition of `Cn1c(=O)c2ccccc2[n+]2c(-c3cccc([N+](=O)[O-])c3)csc12` is ___
## Result -15.3

## Task Fill in: growth inhibition of `Oc1ccccc1-c1cc(-c2ccccc2)nc(NCCCCNc2nc(-c3ccccc3)cc(-c3ccccc3O)n2)n1` is ___
## Result -3.95

## Task Fill in: growth inhibition of `O=[N+]([O-])c1ccc(N=Nc2ccc(N(CCO)CCO)cc2)cc1` is ___
## Result -8.35

## Task Fill in: growth inhibition of `O=C(O)c1cccc(F)c1C(=O)c1ccc2ccccc2c1` is ___
## Result 4.15

## Task Fill in: growth inhibition of `N=C(N)Cn1cnc2ccccc21` is ___
## Result -10.3

## Task Fill in: growth inhibition of `O=c1cc(O)n2ncnc2[nH]1` is ___
## Result -23.6

## Task Fill in: growth inhibition of `O/N=C/c1ccccc1O` is ___
## Result -19.1

## Task Fill in: growth inhibition of Nc1ncnc2nc(SC3OC(CO)C(O)C(O)C3O)[nH]c12 (centres undefined) is ___
## Result -9.65

## Task Fill in: growth inhibition of `CC(=O)[O-].Cc1ccnc(NS(=O)(=O)c2ccc(N=Cc3ccccc3[O-])cc2)n1.Cc1ccnc(NS(=O)(=O)c2ccc(N=Cc3ccccc3[O-])cc2)n1.[Cu+2]` is ___
## Result 2

---

Test: NCI Yeast Anticancer Drug Screen. Data for the rad50 strain (AID 155);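 also: 0% = growth of vehicle-only cultures of the same strain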
Details: S. cerevisiae rad50 strain growth inhibition; at 50.0 µM; stronger effect = higher value
This is part of a sample that, as a whole, favours compounds with a hit. Of some 79,000 tested, about 15% had one in any assay.
measured quantity: growth inhibition (%)
Note: unit % is implicit; provide only the numeric part.

>>> readout_number("COc1ccc(Cc2cc3c(cc2OCC(=O)N2CCOCC2)OCO3)cc1")
-3.25
>>> readout_number("NC(Cc1ccc(S(=O)(=O)O)cc1)C(=O)NC(CCCCNC(=O)NCCCCC(NC(=O)C(N)Cc1ccc(S(=O)(=O)O)cc1)C(=O)NC(Cc1ccc(S(=O)(=O)O)cc1)C(=O)O)C(=O)NC(Cc1ccc(S(=O)(=O)O)cc1)C(=O)O (centres undefined)")
-11.7
>>> readout_number("CCC(=O)Nc1nnc(SCCCCCCCCCCSc2nnc(NC(=O)CC)s2)s1")
20.6
>>> readout_number("CCCCCCCCC1C(CCCCCCCC(=O)N(CC)CCCOCC)C2(Cl)C(Cl)=C(Cl)C1(Cl)C2(Cl)Cl (centres undefined)")
3.45

## Task Fill in: growth inhibition of c1ccc(CCC2OCC(c3ccccc3)O2)cc1 (centres undefined) is ___
## Result -21.9

## Task Fill in: growth inhibition of `O=C(C[n+]1ccccc1Cl)c1ccc(I)cc1` is ___
## Result 18.2

---

Assay: NCI Yeast Anticancer Drug Screen. Data for the cln2 rad14 strain (AID 165);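 also: 0% = growth equal to vehicle treated cultures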
Settings: S. cerevisiae cln2 rad14 strain, at 50.0 µM
The panel holds about 79,000 compounds, 15% with a hit somewhere; the sample as a whole holds those more often. The source made the active and inactive calls. Cut-off read from the data, not from the text of the source: active = growth inhibition above about 70%; inactive = the rest.
Respond only with the outcome that fits, drawn from y = active, n = inactive

Reference set, count: 4
>>> cat("Nc1ccc(-c2c[nH]c(=O)c([N+](=O)[O-])c2)cc1")
"n"
>>> cat("CCOC(=O)NN1C(=O)c2cccc3c([N+](=O)[O-])ccc(c23)C1=O")
"y"
>>> cat("O=Cc1cccc2ccc3cccc(C(=O)O)c3c12")
"n"
>>> cat("COC(=O)c1ncn(Cc2ccccc2)c1O (tested in a mixture with another compound)")
"n"

## Task Returns: the outcome recorded for `CCCCCCCCCC[n+]1cccc(C(N)=O)c1` in this assay.
## Result n

## Task Returns: the outcome recorded for CCc1c(C)c(C#N)c(=S)n(C2OC(CO)C(O)C(O)C2O)c1C (stereo not drawn) in this assay.
## Result n

## Task Returns: the outcome recorded for COC(=O)C(=O)C1CCc2c(ccc3c2CCCC3)C1 (stereo not drawn) in this assay.
## Result n

## Task Returns: the outcome recorded for `CNC(=S)N(C)c1ccccc1` in this assay.
## Result n

## Task Returns: the outcome recorded for `CCN(CC)c1ncnc2n[nH]nc12` in this assay.
## Result n

## Task Returns: the outcome recorded for `COc1cc(-c2ccc(N=Nc3ccc(N)nc3N)c(OC)c2)ccc1N=Nc1ccc(N)nc1N` in this assay.
## Result n

## Task Returns: the outcome recorded for `Cc1c(-c2ccccc2)nnn1-c1ccc(F)c(Cl)c1` in this assay.
## Result n

## Task Returns: the outcome recorded for `CN(C)c1ccc(/C=c2\[nH]c(=O)/c(=C\c3ccc(N(C)C)cc3)[nH]c2=O)cc1` in this assay.
## Result n

## Task Returns: the outcome recorded for Cc1ccc(-n2cc(-c3ccc(Cl)cc3)c3c2N=CN2NC(c4cccs4)=NC32)cc1 (stereo not drawn) in this assay.
## Result n

## Task Returns: the outcome recorded for CC(C)NC(=O)c1ccccc1-[s+]1c2ccccc2c(=O)n1C(C)C (stereo not drawn) in this assay.
## Result n
